Reported pest or weed control at 80 g/ha is given for each of the following molecules.
- Tested on: AVEFA
- procedure.details: Pre-emergence herbicidal action against AVEFA
- Assay type: in vivo, Avena fatua
- experimental.conditions: Avena fatua, 504 h; 80 g/ha, pre-emergence
- Text: Seeds of monocotyledonous and dicotyledonous weed plants and crop plants are laid out in sandy loam soil in wood-fiber pots and covered with soil. […] The damage to the test plants is scored visually after a test period of 3 weeks by comparison with untreated controls (herbicidal activity in percent (%): 100% activity=the plants have died, 0% activity=like control plants). […]
# value in %; strip the unit string

# structure.notation, pest or weed control at 80 g/ha, %
rows = [
    ("Cn1nnnc1NC(=O)c1ccc(C(F)(F)F)c(C(=O)NCC(F)(F)F)c1Cl", 100),
    ("Cn1nnnc1NC(=O)c1ccc(C(F)(F)F)c(C(N)=O)c1Cl", 90),
    ("Cc1c(C(=O)Nc2nnnn2C)ccc(C(F)(F)F)c1C(=O)NC1CC1", 100),
    ("CCCn1nnnc1NC(=O)c1ccc(C(F)(F)F)c(C(N)=O)c1Cl", 90),
]

Shift focus to the following entry.
Task item: Which pest or weed control at 80 g/ha value belongs to CCNC(=O)c1c(C(F)(F)F)ccc(C(=O)Nc2nnnn2C)c1OC ?
Reply: 90

----------
Reported Pre-emergence action against AMARE in % is given for each of the following compounds.
- Test system: AMARE
- procedure.details: Pre-emergence herbicidal action against AMARE
- Format: in vivo, Amaranthus retroflexus
- experimental.conditions: 20 g/ha, scored visually after 3 weeks vs untreated controls, 100% = plants have died, 0% = like control plants
- Description: Seeds of monocotyledonous and dicotyledonous weed plants and crop plants are laid out in sandy loam soil in wood-fiber pots and covered with soil. […] The damage to the test plants is scored visually after a test period of 3 weeks by comparison with untreated controls (herbicidal activity in percent (%): 100% activity=the plants have died, 0% activity=like control plants). […]
# value in %; strip the unit string

Below, 6 compounds whose answers are already recorded.
# compound, Pre-emergence action against AMARE in % [%]
measured = [
    ("Cc1nnc(NC(=O)c2ccc(Br)c(C(=O)NCC(F)F)c2Cl)o1 [Example 6-145]", 90),
    ("CCn1nnnc1NC(=O)c1ccc(C(F)(F)F)c(C(=O)NCC2CCCO2)c1C (centres unmarked) [Example 2-37]", 90),
    ("CCn1nnnc1NC(=O)c1ccc(C(F)F)c(C(=O)Nc2ccccc2)c1Cl [Example 2-161]", 90),
    ("CCn1nnnc1NC(=O)c1ccc(C(F)(F)F)c(C(=O)NC(C)C2CC2)c1SC (centres unmarked) [Example 2-350]", 100),
    ("CC(NC(=O)c1c(C(F)(F)F)ccc(C(=O)Nc2nnnn2C)c1C1CC1)C1CC1 (centres unmarked) [Example 1-292]", 100),
    ("CCn1nnnc1NC(=O)c1ccc(C(F)(F)F)c(C(=O)NC)c1C [Example 2-25]", 100),
]

Task item: Which Pre-emergence action against AMARE in % value belongs to CCc1c(C(=O)Nc2ncnn2C)ccc(C(F)(F)F)c1C(=O)NC1CC1 [Example 4-212] ?
Reply: 90

Task item: Which Pre-emergence action against AMARE in % value belongs to Cc1c(C(=O)Nc2nnnn2C)ccc(C(F)(F)F)c1C(=O)NCC1CCCO1 (centres unmarked) [Example 1-37] ?
Reply: 100

----------
- Tested on: AMARE
- procedure.details: Post-emergence herbicidal action against AMARE
- Format: in vivo, Amaranthus retroflexus
- experimental.conditions: Amaranthus retroflexus, 504 h, 80 g/ha, visual assessment about 3 weeks after treatment, 100% = plants have died, 0% = like control plants
property: pest or weed control at 80 g/ha (%)
# value in %; strip the unit string

Below, 3 compounds whose answers are already recorded.
# compound, property, numeric.value
data = [
    ("CCCn1nnnc1NC(=O)c1ccc(C(F)(F)F)c(C(=O)NC)c1Cl [Example 3-129]", "pest or weed control at 80 g/ha", 100),
    ("CCNC(=O)c1c(C(F)F)ccc(C(=O)Nc2nnnn2CC)c1Cl [Example 2-148]", "pest or weed control at 80 g/ha", 90),
    ("CCn1nnnc1NC(=O)c1ccc(C(F)(F)F)c(C(=O)NC)c1Cl [Example 2-129]", "pest or weed control at 80 g/ha", 100),
]

Task item: Which pest or weed control at 80 g/ha value belongs to CCNC(=O)c1c(C(F)(F)F)ccc(C(=O)Nc2nnnn2CC)c1SC [Example 2-82] ?
Reply: 90

Task item: Which pest or weed control at 80 g/ha value belongs to Cc1nnc(NC(=O)c2ccc(C(F)(F)F)c(C(N)=O)c2Cl)o1 [Example 6-253] ?
Reply: 100

Task item: Which pest or weed control at 80 g/ha value belongs to CNC(=O)c1c(C(F)(F)F)ccc(C(=O)Nc2nnc(C)o2)c1SC [Example 6-58] ?
Reply: 90

----------
- Tested on: ALOMY
- procedure.details: Post-emergence herbicidal action against ALOMY
- Format: in vivo, Alopecurus myosuroides
- experimental.conditions: Alopecurus myosuroides, 504 h, dosage 20 g/ha, visual assessment about 3 weeks after treatment vs untreated controls
property: pest or weed control at 20 g/ha (%)
# value in %; strip the unit string

Below, 5 compounds whose answers are already recorded.
# compound, pest or weed control at 20 g/ha [%]
rows = [
    ("CNC(=O)c1c(C(F)(F)F)ccc(C(=O)Nc2nnnn2C)c1Br [Example 1-207]", 90),
    ("CCNC(=O)c1c(Cl)ccc(C(=O)Nc2nnnn2CC)c1Br [Example 2-348]", 90),
    ("CCNC(=O)c1c(C(F)(F)F)ccc(C(=O)Nc2nnnn2CC)c1C1CC1 [Example 2-287]", 90),
    ("CNC(=O)c1c(I)ccc(C(=O)Nc2nnnn2C)c1Cl [Example 1-195]", 100),
    ("CCCNC(=O)c1c(C(F)(F)F)ccc(C(=O)Nc2nnnn2C)c1C [Example 1-32]", 90),
]

Task item: Which pest or weed control at 20 g/ha value belongs to CNC(=O)c1c(Br)ccc(C(=O)Nc2nnnn2C)c1Br [Example 1-342] ?
Reply: 100

Task item: Which pest or weed control at 20 g/ha value belongs to CCn1nnnc1NC(=O)c1ccc(Br)c(C(=O)NC2CC2)c1Br [Example 2-343] ?
Reply: 100

Task item: Which pest or weed control at 20 g/ha value belongs to Cc1c(C(=O)Nc2nnnn2C)ccc(C(F)F)c1C(=O)NC1CC1 [Example 1-46] ?
Reply: 90

Task item: Which pest or weed control at 20 g/ha value belongs to CCNC(=O)c1c(C(F)(F)F)ccc(C(=O)Nc2nnnn2C)c1C [Example 1-26] ?
Reply: 90

----------
Reported pest or weed control at 320 g/ha is given for each of the following compounds.
- System: STEME
- procedure.details: Pre-emergence herbicidal action against STEME
- Assay type: in vivo, Stellaria media
- experimental.conditions: Stellaria media, 504 h, dosage 320 g/ha
# value in %; strip the unit string

# compound, tested.system, pest or weed control at 320 g/ha / %
records = [
    ("CCCn1nnnc1NC(=O)c1ccc(C(F)(F)F)c(C(=O)NC)c1Cl [Example 3-129]", "STEME", 100),
    ("CCn1nnnc1NC(=O)c1ccc(C(F)F)c(C(=O)NC)c1Cl [Example 2-147]", "STEME", 100),
    ("CCNC(=O)c1c(C(F)(F)F)ccc(C(=O)Nc2nnnn2CC)c1SC [Example 2-82]", "STEME", 100),
]

Task item: Which pest or weed control at 320 g/ha value belongs to CCNC(=O)c1c(C(F)(F)F)ccc(C(=O)Nc2nnc(C)o2)c1Cl [Example 6-117] ?
Reply: 100

Task item: Which pest or weed control at 320 g/ha value belongs to Cc1nnc(NC(=O)c2ccc(C(F)(F)F)c(C(N)=O)c2Cl)o1 [Example 6-253] ?
Reply: 100

----------
- Test system: AMARE
- procedure.details: Post-emergence herbicidal action against AMARE
- Assay type: in vivo, Amaranthus retroflexus
- experimental.conditions: 20 g/ha, visual assessment about 3 weeks after treatment, 100% = plants have died, 0% = like control plants
- Description: Seeds of monocotyledonous and dicotyledonous weed and crop plants are laid out in sandy loam soil in wood-fiber pots, covered with soil and cultivated in a greenhouse under good growth conditions. 2 to 3 weeks after sowing, the test plants are treated at the one-leaf stage. […]
property: Post-emergence action at 20 g/ha against AMARE in %
Number plus unit, in that order.

# compound, result
records = [
    ("CNC(=O)c1c(C(F)(F)F)ccc(C(=O)Nc2nnco2)c1SC [Example 5-58]", "90%"),
    ("CCn1nnnc1NC(=O)c1ccc(C(F)(F)F)c(C(=O)NCC(=O)N(C)C)c1Cl [Example 2-142]", "100%"),
    ("CCn1nnnc1NC(=O)c1ccc(C(F)F)c(C(=O)NCCOC)c1Cl [Example 2-156]", "90%"),
    ("Cc1nnc(NC(=O)c2ccc(C(F)F)c(C(=O)NCC(F)F)c2Br)o1 [Example 6-169]", "90%"),
    ("CCNC(=O)c1c(C(F)(F)F)ccc(C(=O)Nc2nnco2)c1Cl [Example 5-117]", "100%"),
    ("CCc1c(C(=O)Nc2nnnn2C)ccc(C(F)(F)F)c1C(=O)NCC1CC1 [Example 1-274]", "100%"),
]

Task item: Which Post-emergence action at 20 g/ha against AMARE in % value belongs to CCNC(=O)c1c(C(F)F)ccc(C(=O)Nc2nnnn2CC)c1C1CC1 [Example 2-305] ?
Reply: 100%

Task item: Which Post-emergence action at 20 g/ha against AMARE in % value belongs to CCn1nnnc1NC(=O)c1ccc(C(F)F)c(C(=O)NC2CCC2)c1Cl [Example 2-164] ?
Reply: 90%

Task item: Which Post-emergence action at 20 g/ha against AMARE in % value belongs to CCCn1nnnc1NC(=O)c1ccc(C(F)(F)F)c(C(=O)NC(C)=O)c1Cl [Example 3-337] ?
Reply: 100%

Task item: Which Post-emergence action at 20 g/ha against AMARE in % value belongs to CCn1nnnc1NC(=O)c1ccc(S(C)(=O)=O)c(C(=O)NC)c1Cl [Example 2-123] ?
Reply: 80%

Task item: Which Post-emergence action at 20 g/ha against AMARE in % value belongs to CCn1nnnc1NC(=O)c1ccc(C(F)(F)F)c(C(=O)NCCOC)c1Cl [Example 2-138] ?
Reply: 90%

Task item: Which Post-emergence action at 20 g/ha against AMARE in % value belongs to CCn1nnnc1NC(=O)c1ccc(C(F)(F)F)c(C(=O)NCC2CC2)c1Br [Example 2-210] ?
Reply: 100%

Task item: Which Post-emergence action at 20 g/ha against AMARE in % value belongs to CCNC(=O)c1c(C(F)F)ccc(C(=O)Nc2nnco2)c1Cl [Example 5-123] ?
Reply: 90%

Task item: Which Post-emergence action at 20 g/ha against AMARE in % value belongs to CCn1nnnc1NC(=O)c1ccc(C(F)F)c(C(=O)NCC(F)F)c1C [Example 2-49] ?
Reply: 100%
